What pIC50 was measured for each of the following?
# Test system: human lung cancer cells NCI-H460
# Test summary: anti-proliferative activity against tumor cells, resazurin assay, NCI-H460
# Type: cell-based
# Assay context: Homo sapiens, NCI-H460, 96 h, read-out: IC50 Grades of Inhibitory Effects of Compounds on Tumor Cells, NCI-H460
# Method: Objective: To test the anti-proliferative activity of the compound of the present disclosure against various tumor cells. […] After the addition of the drug to each well was completed, the plates were cultured in an incubator for 96 hours, 22 μL of resazurin sodium solution (Alarm blue, SIGMA R7017) was added to each well. […] The fluorescence value of each well were recorded at 530/590 nm. […] The IC50 value of each test compound was calculated by Prism7 software. […]
pIC50: −log10 of the molar value.

# return recorded pIC50 for entry O=NN(CCCl)C(=O)NCCNCCCCN1C(=O)c2cccc3cccc(c23)C1=O [Compound I-04] 5.00 to 5.30

# return recorded pIC50 for entry O=NN(CCCl)C(=O)NCCN1C(=O)c2cccc3cc([N+](=O)[O-])cc(c23)C1=O [Compound 1, reference compound] 4.70 to 4.96

# return recorded pIC50 for entry O=NN(CCCl)C(=O)NCNCCN1C(=O)c2cccc3cc([N+](=O)[O-])cc(c23)C1=O [Compound I-03] 5.00 to 5.30

# return recorded pIC50 for entry O=NN(CCCl)C(=O)NCCCCN1C(=O)c2cccc3cccc(c23)C1=O [Compound 1d, reference compound] 4.00 to 4.29

# return recorded pIC50 for entry O=C(NCCNCCCCN1C(=O)c2cccc3cccc(c23)C1=O)N(CCl)CCl [Compound I-01] 5.00 to 5.30
